# credit: paper PMC10981727

For each entry below, report its pIC50 value.
- Test system: human fetal lung (HFL-1)
- TEST: MTT viability assay, normal HFL-1
- Type: cell-based
- TEST SETTINGS: HFL1, normal cell line, 24 h, mean ± standard error
Numbers only, as −log10 of the molar value.

As a guide, the following entries are already answered.
# COMPOUND, TARGET SYSTEM, MEASURED QUANTITY, OBS VALUE
records = [
    ("N#CC1=C(N)Oc2ccc3ccc(O)cc3c2C1c1ccccc1Cl (centres unmarked)", "human fetal lung (HFL-1)", "pIC50", 4.14),
    ("N#CC1=C(N)Oc2ccc3ccc(O)cc3c2C1c1ccc([N+](=O)[O-])cc1 (centres unmarked)", "human fetal lung (HFL-1)", "pIC50", 4.07),
    ("N#CC1=C(N)Oc2ccc3ccc(O)cc3c2C1c1ccc(F)cc1 (centres unmarked)", "human fetal lung (HFL-1)", "pIC50", 4.16),
    ("COc1ccc(C2C(C#N)=C(N)Oc3ccc4ccc(O)cc4c32)cc1 (centres unmarked)", "human fetal lung (HFL-1)", "pIC50", 4.11),
]

We next turn to a different compound, shown below.
Lookup result for N#CC1=C(N)Oc2ccc3ccc(O)cc3c2C1c1cccc(Cl)c1 (centres unmarked) ; measured pIC50: 4.25
